# assay_target: IRAK4 (Homo sapiens)
# Construct: endogenous in cells; host or cells: OCI-LY10
# Sequence (Q9NWZ3 1-460): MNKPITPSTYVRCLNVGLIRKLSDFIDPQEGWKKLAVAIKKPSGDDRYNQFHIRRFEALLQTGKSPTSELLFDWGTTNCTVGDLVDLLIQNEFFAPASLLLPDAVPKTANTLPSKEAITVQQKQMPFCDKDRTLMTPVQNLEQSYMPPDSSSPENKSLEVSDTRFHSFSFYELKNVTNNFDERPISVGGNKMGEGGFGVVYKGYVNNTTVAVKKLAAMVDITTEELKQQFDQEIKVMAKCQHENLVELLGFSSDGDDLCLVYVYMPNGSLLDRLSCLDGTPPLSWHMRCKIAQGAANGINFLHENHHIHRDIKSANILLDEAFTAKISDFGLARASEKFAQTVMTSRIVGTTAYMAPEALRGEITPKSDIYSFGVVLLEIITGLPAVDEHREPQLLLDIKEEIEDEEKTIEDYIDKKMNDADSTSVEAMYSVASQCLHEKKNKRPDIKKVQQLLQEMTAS
# assay_remarks: IRAK4 MSD Degradation in OCI-LY10
# Type: cell-based
# condition_set: OCI-LY10 cells, Meso Scale Discovery, incubated 4 to 24 hours
What DC50 was measured for each of the following?

Please report the recorded DC50 for COc1cc2nn([C@H]3CC[C@H](CN4CCN(c5cccc6c5n(C)c(=O)n6C5CCC(=O)NC5=O)C[C@H]4C)CC3)cc2cc1NC(=O)c1cccc(C(F)(F)F)n1 (stereo partly shown) .
< 0.01 µM

Subsequent entry: Cc1cccc(C(=O)Nc2cc3sc([C@H]4CC[C@H](CN(C)CCCCNc5cccc6c5C(=O)N(C5CCC(=O)NC5=O)C6=O)CC4)nc3cc2C(C)(C)O)n1 (stereo partly shown)
0.01 to 0.05 µM

One more molecule: COc1cc2nn([C@H]3CC[C@H](CN4CCC(c5cc(F)cc6c5n(C)c(=O)n6C5CCC(=O)NC5=O)CC4)CC3)cc2cc1NC(=O)c1cccc(C(F)(F)F)n1 (stereo partly shown)
< 0.01 µM

Ok, now CC(C)Nc1cc(-n2ccc3cc(C#N)cnc32)ncc1-c1cn([C@H]2CC[C@H](CN3CCC(c4cccc5c(N6CCC(=O)NC6=O)cncc45)CC3)CC2)nn1
< 0.01 µM

Let us now turn to Cc1cc2nn([C@H]3CC[C@H](CN4C[C@H]5C[C@@H]4CN5c4cccc5c4n(C)c(=O)n5C4CCC(=O)NC4=O)CC3)cc2cc1NC(=O)c1cccc(C(F)(F)F)n1 (stereo partly shown)
0.01 to 0.05 µM

And then Cc1c(C2CCN(C[C@H]3CC[C@H](n4cc5cc(NC(=O)c6cccc(C(F)(F)F)n6)ncc5n4)CC3)CC2)ccc2c1n(C)c(=O)n2C1CCC(=O)NC1=O (stereo partly shown) , what is it?
> 0.2 µM

Next: Cc1ccc2c(c1C1CCN(C[C@H]3C[C@H](n4cc5cc(NC(=O)c6cccc(C(F)(F)F)n6)c(Cl)cc5n4)C3)CC1)n(C)c(=O)n2C1CCC(=O)NC1=O (stereo partly shown)
0.05 to 0.1 µM

// same read-out, input: Cn1c(=O)n(C2CCC(=O)NC2=O)c2ccc(Cl)c(C3CCN(C[C@H]4C[C@H](n5cc6cc(NC(=O)c7cccc(C(F)(F)F)n7)ncc6n5)C4)CC3)c21 (stereo partly shown)
0.1 to 0.2 µM

Also CN(C(=O)[C@H]1CC[C@H](n2cc3cc(NC(=O)c4cccc(C(F)(F)F)n4)ccc3n2)CC1)C1CCN(c2cccc3c2n(C)c(=O)n3C2CCC(=O)NC2=O)CC1 (stereo partly shown) ?
< 0.01 µM

Continue with COc1cc2nn([C@H]3CC[C@H](CN4CCC(c5cccc6c5n(C)c(=O)n6C5CCC(=O)NC5=O)CC4)CC3)cc2cc1NC(=O)c1cc(Cl)cnn1 (stereo partly shown)
> 0.2 µM

Also, C[C@@H]1CN(c2cccc3c2n(C)c(=O)n3C2CCC(=O)NC2=O)CCN1C[C@H]1CC[C@H](n2cc3cc(NC(=O)c4cccc(C(F)(F)F)n4)ccc3n2)CC1 (stereo partly shown) please.
< 0.01 µM

Follow-up entry: C=C/C(NCCCN1CCN(C[C@H]2CC[C@H](c3nc4cc(C(C)(C)O)c(NC(=O)c5cccc(C)n5)cc4s3)CC2)C[C@@H]1C)=C1/C(=O)N(C2CCC(=O)NC2=O)C(=O)/C1=C/C (stereo partly shown)
0.01 to 0.05 µM

One more molecule: CN(C[C@H]1CC[C@H](n2cc3cc(NC(=O)c4cccc(C(F)(F)F)n4)ncc3n2)CC1)C1CCN(c2cccc3c2n(C)c(=O)n3C2CCC(=O)NC2=O)CC1 (stereo partly shown)
< 0.01 µM

Can you check COc1cc2nc([C@H]3CC[C@H](CN(C)CCCCNc4cccc5c4C(=O)N(C4CCC(=O)NC4=O)C5=O)CC3)sc2cc1NC(=O)c1cccc(C(F)(F)F)n1 (stereo partly shown) next?
0.01 to 0.05 µM

Please give the result for COc1ccc2c(c1N1CCN(C[C@H]3CC[C@H](NC(=O)c4cnc(-n5ccc6cc(C#N)cnc65)cc4NC(C)C)CC3)CC1)n(C)c(=O)n2C1CCC(=O)NC1=O (stereo partly shown) too.
0.01 to 0.05 µM

Moving on to the next molecule: Cc1cc2nn([C@H]3CC[C@H](CN4CCN(c5cccc6c5n(C)c(=O)n6[C@@H]5CCC(=O)NC5=O)CC4)CC3)cc2cc1NC(=O)c1cccc(C(F)(F)F)n1
< 0.01 µM

// same read-out, input: CN(CCCNc1cccc2c1C(=O)N(C1CCC(=O)NC1=O)C2=O)C[C@H]1CC[C@H](c2nc3cc(C(C)(C)O)c(NC(=O)c4cccc(C(F)(F)F)n4)cc3s2)CC1 (stereo partly shown)
> 0.2 µM

Check CC(C)(O)c1cc2nc([C@H]3CC[C@H](CN4CCO[C@@H](CCCNc5cccc6c5C(=O)N(C5CCC(=O)NC5=O)C6=O)C4)CC3)sc2cc1NC(=O)c1cccc(C#N)n1 (stereo partly shown) too.
0.01 to 0.05 µM

Same lookup for Cn1c(=O)n(C2CCC(=O)NC2=O)c2cccc(C3CCN(C[C@H]4CC[C@H](n5cc6cc(NC(=O)c7cncc(C#N)c7)c(N7C[C@H]8C[C@@H]7CO8)cc6n5)CC4)CC3)c21 (stereo partly shown) , please.
> 0.2 µM

Another: COc1cc2nn([C@H]3CC[C@H](CN4CCC(c5cccc6c5n(C)c(=O)n6C5CCC(=O)NC5=O)CC4)CC3)cc2cc1NC(=O)c1cncc(C(F)(F)F)c1 (stereo partly shown)
< 0.01 µM

Next record, please: CN(C[C@H]1CC[C@H](n2cc3cc(NC(=O)c4cccc(C(F)(F)F)n4)c(C(C)(C)O)cc3n2)CC1)C1CCN(c2cccc3c(N4CCC(=O)NC4=O)cncc23)CC1
< 0.01 µM

And C[C@@H]1CN(C[C@H]2CC[C@H](n3cc4cc(NC(=O)c5cccc(C(F)(F)F)n5)c(C(C)(C)O)cc4n3)CC2)CCN1c1cccc2c(N3CCC(=O)NC3=O)cncc12 ?
< 0.01 µM

###

# assay_target: IRAK4 (Homo sapiens)
# Construct: endogenous in cells; host or cells: OCI-LY10
# assay_remarks: IRAK4 MSD Degradation in OCI-LY10
# Assay type: cell-based
# condition_set: OCI-LY10 cells, Meso Scale Discovery, incubated 4 to 24 hours
value_type: DC50

Would you mind telling me what DC50 value was observed for Cc1ccc2c(c1C1CCN(C[C@H]3CC[C@H](n4cc5cc(NC(=O)c6cccc(C(F)(F)F)n6)ncc5n4)CC3)CC1)n(C)c(=O)n2C1CCC(=O)N(C)C1=O (some centres unmarked) ?
> 200 nM

Next molecule up: COc1cc2nn([C@H]3CC[C@H](CN4CCCN(c5cccc6c5n(C)c(=O)n6C5CCC(=O)NC5=O)CC4)CC3)cc2cc1NC(=O)c1cncc(C#N)c1 (some centres unmarked)
10 to 50 nM

Then this molecule: COc1cc2nn([C@H]3CC[C@H](CN4CCC(c5cccc6c(N7CCC(=O)NC7=O)cncc56)CC4)CC3)cc2cc1NC(=O)c1cc(F)cc(C(F)(F)F)c1
10 to 50 nM

How about Cn1c(=O)n(C2CCC(=O)NC2=O)c2cccc(N3CCN(C[C@H]4CC[C@H](n5cc6cc(NC(=O)c7cccc(C(F)(F)F)n7)c(N7CCCC7)cc6n5)CC4)CC3)c21 (some centres unmarked) ?
10 to 50 nM

Next record, please: CC(C)Nc1cc(-n2ccc3cc(C(F)(F)F)cnc32)ncc1C(=O)N[C@H]1CC[C@H](CN2CCN(c3ccc4c(c3)n(C)c(=O)n4C3CCC(=O)NC3=O)CC2)CC1 (some centres unmarked)
> 200 nM

Repeat for the following molecule: Cn1c(=O)n(C2CCC(=O)NC2=O)c2cccc(N3C[C@@H]4C[C@H]3CN4C[C@H]3CC[C@H](n4cc5cc(NC(=O)c6cccc(C(F)(F)F)n6)c(C(C)(C)O)cc5n4)CC3)c21 (some centres unmarked)
< 10 nM

Now the molecule COc1cc2nc([C@H]3CC[C@H](CN(C)CCCNc4cccc5c4C(=O)N(C4CCC(=O)NC4=O)C5=O)CC3)sc2cc1NC(=O)c1cncc(C#N)c1 (some centres unmarked)
> 200 nM

Now the molecule Cn1c(=O)n(C2CCC(=O)NC2=O)c2cccc(C3CCN(C[C@H]4CC[C@H](n5cc6cc(NC(=O)c7cccc(C(F)(F)F)n7)c(N7CCOCC7)cc6n5)CC4)CC3)c21 (some centres unmarked)
< 10 nM

How about Cn1c(=O)n(C2CCC(=O)NC2=O)c2cccc(C3CCN(C[C@H]4CC[C@H](n5cc6cc(NC(=O)c7cnccn7)c(F)cc6n5)CC4)CC3)c21 (some centres unmarked) ?
> 200 nM

# iterate: CN(C[C@H]1CC[C@H](n2cc3cc(NC(=O)c4cccc(C(F)(F)F)n4)ccc3n2)CC1)C1CCN(c2cccc3c(N4CCC(=O)NC4=O)cncc23)CC1
> 200 nM

// query: COc1cc2nn([C@H]3CC[C@H](CN4CCC(c5ccc6c(N7CCC(=O)NC7=O)cncc6c5)CC4)CC3)cc2cc1NC(=O)c1cncc(C#N)c1
100 to 200 nM
